These measurements were taken from ChEMBL document CHEMBL5058577.

# reported Population Normal (%); entries follow
System: Fibroblast
ASSAY SUMMARY: Multiplex assay against human fibroblast
Type: toxicity, cell-based
CONDITION NOTES: 24 h, 10 µM, compound concentration 10 uM, replicate 1
The answer is to be given in %; state only the numeric part.

Any idea what its Population Normal (%) is? The molecule is COc1c(C)cc(NC(=O)c2nn(Cc3ccc(F)cc3)c3c2CN(C(=O)c2ccc[nH]2)C[C@]3(C)C(N)=O)cc1C 96

Any idea what its Population Normal (%) is? The molecule is C[C@H](NC(=O)c1c(C(F)F)nn(C)c1Oc1cccc(C(F)(F)F)c1)c1ccc(C(=O)O)cc1 94

Any idea what its Population Normal (%) is? The molecule is Cc1ccc(/C(=C\CN2CCCC2)c2ccccn2)cc1 95

Any idea what its Population Normal (%) is? The molecule is CC1(COc2ccc3c(c2)ncn3-c2ccc3cccc(N4CCC(N)CC4)c3n2)COC1 83

Any idea what its Population Normal (%) is? The molecule is C[C@@H]1C[C@H]2[C@@H]3CCC4=CC(=O)C=C[C@]4(C)[C@@]3(F)[C@@H](O)C[C@]2(C)[C@@]1(O)C(=O)CO 96

Any idea what its Population Normal (%) is? The molecule is COc1cc(NC(=O)CCN2CCC(OC(=O)Nc3ccccc3-c3ccccc3)CC2)c(Cl)cc1CNC[C@H](O)c1ccc(O)c2[nH]c(=O)ccc12 99

Any idea what its Population Normal (%) is? The molecule is c1cc(OCCCN2CCCCC2)ccc1CN1CCCCC1 99

Any idea what its Population Normal (%) is? The molecule is CCCn1c(=O)c2[nH]c(C3CCCC3)nc2n(CCC)c1=O 96

Any idea what its Population Normal (%) is? The molecule is CC[C@H]1OC(=O)[C@H](C)[C@@H](O[C@H]2C[C@@](C)(OC)[C@@H](O)[C@H](C)O2)[C@H](C)[C@@H](O[C@@H]2O[C@H](C)C[C@H](N(C)C)[C@H]2O)[C@@]2(C)CC(C)=C(O2)[C@H](C)[C@@H](O)[C@]1(C)O 97

Any idea what its Population Normal (%) is? The molecule is CC(=O)NCCc1c(Cc2ccccc2)[nH]c2ccccc12 97

Any idea what its Population Normal (%) is? The molecule is COc1cc(C(=O)N(CCCc2ccccc2)Cc2ccc(CC(=O)O)cc2)cc(OC)c1C 98

Any idea what its Population Normal (%) is? The molecule is CN(C)CCCc1cc(C(=O)Nc2ccc(-c3ccncc3)cc2)ccc1O.Cl.Cl 93

Any idea what its Population Normal (%) is? The molecule is Cc1ccc(F)cc1C(=O)Nc1ccc(C(=O)N2Cc3cccn3Cc3ccccc32)c(Cl)c1 99

Any idea what its Population Normal (%) is? The molecule is N#Cc1c(N)nc(SCc2csc(-c3ccc(Cl)cc3)n2)c(C#N)c1-c1ccc(OCCO)cc1 97

Any idea what its Population Normal (%) is? The molecule is CC(C)(C)c1ccc(S(=O)(=O)Nc2ccc(Cl)cc2C(=O)c2cc[n+]([O-])cc2)cc1 98

Any idea what its Population Normal (%) is? The molecule is CN(C)c1ccnc2sc3c(=O)n(N4CCCCCC4)cnc3c12 94

Any idea what its Population Normal (%) is? The molecule is CNC[C@H](O)c1ccc(O)c(O)c1 [EPINEPHRINE] 96

Any idea what its Population Normal (%) is? The molecule is Cc1ccccc1C(=O)Nc1ccc(C(=O)N2CCCC(N(C)C)c3ccccc32)cc1.Cl (stereo not given) 98

Any idea what its Population Normal (%) is? The molecule is CCCN1CCC[C@@H]2Cc3n[nH]cc3C[C@H]21.Cl [QUINPIROLE HYDROCHLORIDE] 97

Any idea what its Population Normal (%) is? The molecule is O=C(O)c1cc2ccccc2c(Cc2c(O)c(C(=O)O)cc3ccccc23)c1O 97

---

# reported Population Tubulin-Different-Phenotype (%); entries follow
Test system: HEK-293T
ASSAY SUMMARY: Multiplex assay against HEK293T
Format: toxicity, cell-based
CONDITION NOTES: human, 48 h, 1 µM, compound concentration 1 uM, replicate 2
The answer is to be given in %; state only the numeric part.

Solved entries:
MOLECULE	TEST SYSTEM	TEST VALUE
CCCn1c(=O)c2[nH]c(C3CCCC3)nc2n(CCC)c1=O	HEK-293T	13
Oc1c(CN2CCN(c3ccccn3)CC2)cc(Cl)c2cccnc12	HEK-293T	10
Cc1ccccc1C(=O)Nc1ccc(C(=O)N2CCCC(N(C)C)c3ccccc32)cc1.Cl (stereo not drawn)	HEK-293T	14
Cl.Clc1ccc2nsnc2c1NC1=NCCN1 [TIZANIDINE HYDROCHLORIDE]	HEK-293T	7
O=C1COc2nccc(-c3ccccc3F)c2CN1Cc1cc(C(F)(F)F)cc(C(F)(F)F)c1	HEK-293T	12

State its Population Tubulin-Different-Phenotype (%) on HEK-293T: CCCN1CCC[C@@H]2Cc3n[nH]cc3C[C@H]21.Cl [QUINPIROLE HYDROCHLORIDE] 8

State its Population Tubulin-Different-Phenotype (%) on HEK-293T: CSc1ccccc1N1CCN(CCCCCC(=O)NC2CCCc3ccccc32)CC1.Cl (stereo not drawn) 31

State its Population Tubulin-Different-Phenotype (%) on HEK-293T: O=C(O)Cc1ccccc1Nc1c(Cl)cccc1Cl 10

---

Tested on: U2OS
ASSAY SUMMARY: Multiplex assay against U2OS
Assay type: toxicity, cell-based
CONDITION NOTES: human, 24 h, 1 µM, compound concentration 1 uM, replicate 1
ENDPOINT NAME: Population Healthy Nuclei (%)
The answer is to be given in %; state only the numeric part.

Solved entries:
COMPOUND	Population Healthy Nuclei (%)
C[C@H]1[C@H]2CC[C@H]3[C@@H]4CC=C5C[C@@H](N(C)C)CC[C@]5(C)[C@H]4CC[C@]23CN1C [CONESSINE]	74
c1cc(OCCCN2CCCCC2)ccc1CN1CCCCC1 [JNJ-5207852]	65
O=S(=O)(c1ccccc1)c1cnc2c(N3CCNCC3)cccc2c1 [INTEPIRDINE]	67

State its Population Healthy Nuclei (%) on U2OS: Cc1ccccc1C(=O)Nc1ccc(C(=O)N2CCCC(N(C)C)c3ccccc32)cc1.Cl (stereo unspecified) 70

State its Population Healthy Nuclei (%) on U2OS: C[C@H](NC(=O)c1c(C(F)F)nn(C)c1Oc1cccc(C(F)(F)F)c1)c1ccc(C(=O)O)cc1 [PALUPIPRANT] 72

State its Population Healthy Nuclei (%) on U2OS: CCCC(CCC)C(=O)O [VALPROIC ACID] 66

State its Population Healthy Nuclei (%) on U2OS: COc1ccc2c(c1)C(C(=O)N(Cc1ccc(N(C)C)cc1)c1ccc(C(C)C)cc1)CCC2.Cl (stereo unspecified) 61

State its Population Healthy Nuclei (%) on U2OS: CCCn1c(=O)c2[nH]c(C3CCCC3)nc2n(CCC)c1=O 68

State its Population Healthy Nuclei (%) on U2OS: CN(C)CCCc1cc(C(=O)Nc2ccc(-c3ccncc3)cc2)ccc1O.Cl.Cl 65

State its Population Healthy Nuclei (%) on U2OS: COc1cc(NC(=O)CCN2CCC(OC(=O)Nc3ccccc3-c3ccccc3)CC2)c(Cl)cc1CNC[C@H](O)c1ccc(O)c2[nH]c(=O)ccc12 [BATEFENTEROL] 55

State its Population Healthy Nuclei (%) on U2OS: COc1c(C)cc(NC(=O)c2nn(Cc3ccc(F)cc3)c3c2CN(C(=O)c2ccc[nH]2)C[C@]3(C)C(N)=O)cc1C 71

State its Population Healthy Nuclei (%) on U2OS: CC[C@H]1OC(=O)[C@H](C)[C@@H](O[C@H]2C[C@@](C)(OC)[C@@H](O)[C@H](C)O2)[C@H](C)[C@@H](O[C@@H]2O[C@H](C)C[C@H](N(C)C)[C@H]2O)[C@@]2(C)CC(C)=C(O2)[C@H](C)[C@@H](O)[C@]1(C)O 63

State its Population Healthy Nuclei (%) on U2OS: C[C@@H]1C[C@H]2[C@@H]3CCC4=CC(=O)C=C[C@]4(C)[C@@]3(F)[C@@H](O)C[C@]2(C)[C@@]1(O)C(=O)CO [DEXAMETHASONE] 71

State its Population Healthy Nuclei (%) on U2OS: Cc1nc2ccc(Oc3ccc(F)cc3)cc2c(=O)n1C[C@H]1CCCN(C(C)C)C1.Cl 65

State its Population Healthy Nuclei (%) on U2OS: O=C1COc2nccc(-c3ccccc3F)c2CN1Cc1cc(C(F)(F)F)cc(C(F)(F)F)c1 74

State its Population Healthy Nuclei (%) on U2OS: CCNC1(C(N)=O)CCN(c2ncnc3c2nc(-c2ccccc2Cl)n3-c2ccc(Cl)cc2)CC1 [OTENABANT] 61
